- Tested Target: KRas G12D (Homo sapiens (Human), UniProt P01116, G12D)
- Sequence (P01116 other isoform, or with tags, fused parts or gaps G12D): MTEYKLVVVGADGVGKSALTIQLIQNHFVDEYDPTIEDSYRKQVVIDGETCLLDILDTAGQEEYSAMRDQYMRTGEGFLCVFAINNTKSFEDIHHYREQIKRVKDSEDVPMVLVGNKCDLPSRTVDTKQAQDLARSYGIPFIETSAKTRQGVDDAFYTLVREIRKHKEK
- Measurement Protocol: KRas G12D Binding Assay (TR-FRET displacement of Cy5 labelled tracer)
- Assay Conditions: GDP-loaded KRAS G12D (amino acids 1:169), 60 minute incubation at 22° C.
- Description: After a 60 minute incubation at 22° C., the reaction was measured using a PerkinElmer EnVision multimode plate reader via TR-FRET dual wavelength detection, and the percent of control (POC) calculated using a ratiometric emission factor. […] The POC values were fit to a 4-parameter logistic curve and the IC50 value was determined as the concentration where the curve crosses 50 POC. ND stands for “not determined.”
pIC50: −log10 of the molar value.
Decision: pIC50 >= 6 yields MET, all other cases yield NOT MET.

| Compound | Tested Target | Label Value |
| --- | --- | --- |
| Fc1c(-c2cncc3cccc(Cl)c23)ncc2c(N3C[C@H]4CC[C@@H](C3)N4)nc(OCC34CCCN3CCC4)nc12 [Example 33, bis(2,2,2-trifluoroacetate)] | KRas G12D (Homo sapiens (Human), UniProt P01116, G12D) | MET |
| Oc1cc(-c2ncc3c(N4C[C@H]5CC[C@@H](C4)N5)nc(OC[C@@]45CCCN4C[C@H](F)C5)nc3c2F)c2c(F)c(F)ccc2c1 [Example 246] | KRas G12D (Homo sapiens (Human), UniProt P01116, G12D) | MET |
| [O-][S+]1CCC(Oc2nc(N3C[C@H]4CC[C@@H](C3)N4)c3cnc(-c4cc(O)cc5ccccc45)c(F)c3n2)CC1 (stereo partly shown) [Example 82] | KRas G12D (Homo sapiens (Human), UniProt P01116, G12D) | MET |
| COc1nc(N2C[C@H]3CC[C@@H](C2)N3)c2cnc(-c3cc(O)cc4cccc(Cl)c34)c(F)c2n1 [Example 360] | KRas G12D (Homo sapiens (Human), UniProt P01116, G12D) | MET |
| CCc1c(F)ccc2cc(O)cc(-c3ncc4c(N5C[C@H]6CC[C@@H](C5)N6)nc(OC[C@]56CCCN5[C@@H](COC(=O)N(C)C)CC6)nc4c3F)c12 [Example 441] | KRas G12D (Homo sapiens (Human), UniProt P01116, G12D) | MET |
| CS(=O)(=O)NC[C@H]1CC[C@@]2(COc3nc(N4C[C@H]5CC[C@@H](C4)N5)c4cnc(-c5cccc6cccc(Cl)c56)c(F)c4n3)CCCN12 [Example 420] | KRas G12D (Homo sapiens (Human), UniProt P01116, G12D) | MET |
| CCc1cccc2cccc(-c3ncc4c(N5C[C@H]6CC[C@@H](C5)N6)nc(OCC56CCCN5CCC6)nc4c3F)c12 [Example 187] | KRas G12D (Homo sapiens (Human), UniProt P01116, G12D) | MET |
| Fc1c(-c2cccc3cccc(Cl)c23)ncc2c(N3C[C@H]4CC[C@@H](C3)N4)nc(OC[C@]34CCCN3[C@@H](Cn3cccn3)CC4)nc12 [Example 418] | KRas G12D (Homo sapiens (Human), UniProt P01116, G12D) | MET |
| CN(C)C(=O)OC[C@H]1CC[C@@]2(COc3nc(N4CC5CCC(C4)N5)c4cnc(-c5cccc6cccc(Cl)c56)c(F)c4n3)CCCN12 [Example 405] | KRas G12D (Homo sapiens (Human), UniProt P01116, G12D) | MET |
| CC(C)c1c(F)cc(O)cc1-c1ncc2c(N3C[C@H]4CC[C@@H](C3)N4)nc(OC[C@@]34CCCN3C[C@H](F)C4)nc2c1F [Example 290] | KRas G12D (Homo sapiens (Human), UniProt P01116, G12D) | MET |
| Fc1c(-c2cccc3cccc(CC(F)F)c23)ncc2c(N3C[C@H]4CC[C@@H](C3)N4)nc(OCC34CCCN3CCC4)nc12 [Example 247] | KRas G12D (Homo sapiens (Human), UniProt P01116, G12D) | MET |
| CN(C)C1CN(c2nc(N3C[C@H]4CC[C@@H](C3)N4)c3cnc(-c4cccc5cccc(Cl)c45)c(F)c3n2)C1 [Example 122] | KRas G12D (Homo sapiens (Human), UniProt P01116, G12D) | NOT MET |
| CC(C)Oc1ccccc1-c1ncc2c(N3CC4CCC(C3)N4)nc(OC[C@@]34CCCN3C[C@H](F)C4)nc2c1F (stereo in doubt) [Example 416] | KRas G12D (Homo sapiens (Human), UniProt P01116, G12D) | NOT MET |
| CN1CC[C@@H](COc2nc(N3C[C@H]4CC[C@@H](C3)N4)c3cnc(-c4cccc5cccc(Cl)c45)c(F)c3n2)C1 [Example 356] | KRas G12D (Homo sapiens (Human), UniProt P01116, G12D) | MET |
| Oc1cc(-c2ncc3c(N4C[C@H]5CC[C@@H](C4)N5)ncnc3c2F)c2ccccc2c1 [Example 181] | KRas G12D (Homo sapiens (Human), UniProt P01116, G12D) | MET |
| CC(C)c1cccc(C(C)C)c1-c1ncc2c(N3C[C@H]4CC[C@@H](C3)N4)nc(OCC34CCCN3CC(F)C4)nc2c1F (stereo partly shown) [Example 394] | KRas G12D (Homo sapiens (Human), UniProt P01116, G12D) | NOT MET |
| CCc1c(F)ccc2cccc(-c3ncc4c(N5C[C@H]6CC[C@@H](C5)N6)nc(OCC56CCCN5CCC6)nc4c3F)c12 [Example 426] | KRas G12D (Homo sapiens (Human), UniProt P01116, G12D) | MET |
| CSc1cccc2cccc(-c3ncc4c(N5C[C@H]6CC[C@@H](C5)N6)nc(OCC56CCCN5CCC6)nc4c3F)c12 [Example 199] | KRas G12D (Homo sapiens (Human), UniProt P01116, G12D) | MET |
| C#Cc1cccc2cc(OC)cc(-c3ncc4c(N5C[C@H]6CC[C@@H](C5)N6)nc(OCC56CCCN5CCC6)nc4c3F)c12 [Example 231] | KRas G12D (Homo sapiens (Human), UniProt P01116, G12D) | MET |
| OC[C@@H]1CCN1c1nc(N2C[C@H]3CC[C@@H](C2)N3)c2cnc(-c3cc(O)cc4ccccc34)c(F)c2n1 [Example 121, 2,2,2-trifluoroacetate] | KRas G12D (Homo sapiens (Human), UniProt P01116, G12D) | MET |
